Test: growth inhibition of GSK3B-pretreated HCT116 cells – cell-based, CellTiter-Glo, 0.2 to 20 µM (AID 1117336)
Experimental Parameters: HCT116 viability after GSK3B inhibitor, at 20 µM, stronger effect = higher value
Measured Property: viability decrease (%)
Record the value in %, omitting the unit from your answer.

| Compound | Observed |
| --- | --- |
| Nc1ccc(N)cc1 | -2.35 |
| O=C1NCN(c2ccccc2)C12CCN(CCCOc1ccc(F)cc1)CC2 | 84.2 |
| CN1C2CCC(C)(C)C1CC(OC(=O)C(O)(c1cccs1)c1cccs1)C2 (stereo unspecified) | 8 |
| CCCCCCCCC(=O)NCc1ccc(O)c(OC)c1 | 4.5 |
| O=C1C2CC=CCC2C(=O)N1SC(Cl)(Cl)Cl (stereo unspecified) | 98.9 |

Req: Report viability decrease for CCCCNC(C)(C)[P+](=O)O please.
Resp: -0.6

----------
In this section, each of the compounds is paired with its reported inhibition.
Test System: 6-phosphogluconate dehydrogenase, decarboxylating (Homo sapiens) (UniProt P52209)
Sequence (P52209 whole entry, looked up): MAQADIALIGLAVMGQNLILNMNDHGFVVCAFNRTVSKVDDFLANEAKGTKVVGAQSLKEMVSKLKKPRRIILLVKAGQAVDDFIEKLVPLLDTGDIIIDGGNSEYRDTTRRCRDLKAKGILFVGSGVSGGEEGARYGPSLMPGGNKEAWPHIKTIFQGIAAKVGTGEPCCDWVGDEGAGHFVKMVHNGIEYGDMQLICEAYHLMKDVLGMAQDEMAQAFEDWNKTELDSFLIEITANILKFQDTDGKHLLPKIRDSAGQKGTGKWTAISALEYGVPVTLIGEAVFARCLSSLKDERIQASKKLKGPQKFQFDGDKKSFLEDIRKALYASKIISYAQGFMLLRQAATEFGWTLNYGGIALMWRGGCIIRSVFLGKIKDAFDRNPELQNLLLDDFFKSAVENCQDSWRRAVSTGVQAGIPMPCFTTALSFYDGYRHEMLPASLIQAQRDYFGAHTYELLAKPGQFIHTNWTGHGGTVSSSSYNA
Test: 6PGD enzyme inhibitors, primary screen, biochemical, human, recombinant enzyme, NADPH absorbance (AID 1159550)
Experimental Parameters: recombinant 6PGD, NADPH absorbance 341 nm; at 10 µM; stronger effect = higher value
Record the value in %, omitting the unit from your answer.

Some compounds with known inhibition results, for comparison:
| Compound | Units Text | Observed |
| --- | --- | --- |
| C[C@]12CC[C@H](O)C[C@H]1CC[C@@H]1[C@@H]2[C@H](O)C[C@]2(C)[C@@H](C3=CC(=O)OC3)CC[C@]12O | % | 11.1 |
| O=C(O)c1nn(Cc2ccc(Cl)cc2Cl)c2ccccc12 | % | 4.63 |
| CCC(=O)O[C@H]1CC[C@H]2[C@@H]3CCC4=CC(=O)CC[C@]4(C)[C@H]3CC[C@]12C | % | 16.6 |

Req: Report inhibition for CN[C@H]1C[C@@H](N)[C@H](O)[C@@H](O[C@@H]2O[C@H](CO)[C@H](O)[C@@H]3OC4(O[C@H]23)O[C@H]([C@@H](N)CO)[C@H](O)[C@@H](O)[C@H]4O)[C@@H]1O (some centres undefined) please.
Resp: 14.7

Req: Report inhibition for CC(NC(C)(C)C)C(=O)c1cccc(Cl)c1 (centres undefined) please.
Resp: -4.52

Req: Report inhibition for NCC(O)c1ccc(O)cc1 (centres undefined) please.
Resp: 8.94

----------
Test: modulation of C. elegans fzo-1 (AID 1259413);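 note: fzo-1 mutant C. elegans worms in liquid wells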
Experimental Parameters: C. elegans fzo-1 modulator screen, mean read-out; stronger effect = higher value
In this section, each of the molecules is paired with its reported mean signal.
Note: the reply should be a number with no unit written.

| Molecule | mean signal |
| --- | --- |
| CN(C)[C@@H]1C(=O)C(C(N)=O)=C(O)[C@@]2(O)C(=O)C3=C(O)c4c(O)cccc4[C@@](C)(O)[C@H]3[C@H](O)[C@@H]12 | 260 |
| CCC1(c2ccc(N)cc2)CCC(=O)NC1=O (stereo not drawn) | 262 |
| COc1ccc2[nH]cc(C3=CCNCC3)c2c1 | 255 |
| CC(C)CC(N(C)C)C1(c2ccc(Cl)cc2)CCC1 (stereo not drawn) | 232 |
| O=c1c2ccccc2[se]n1-c1ccccc1 | 217 |

Req: Report mean signal for CCN(C(C)=O)c1cccc(-c2ccnc3c(C#N)cnn23)c1 please.
Resp: 228

Req: Report mean signal for CC(C)N(CCC(C(N)=O)(c1ccccc1)c1ccccn1)C(C)C (stereo not drawn) please.
Resp: 254

Req: Report mean signal for c1cncc(C2CCCN2)c1 (stereo not drawn) please.
Resp: 296

Req: Report mean signal for CC1CCC[C@H](O)CCCCCc2cc(O)cc(O)c2C(=O)O1 (stereo partly drawn) please.
Resp: 252

Req: Report mean signal for CC[C@@H]1/C=C/C=C/C[C@H](C)[C@@H](O)[C@](C)(O)C(=O)[C@H](C)[C@@H](O)[C@H](C)C(=O)[C@H](C)[C@@H](O)[C@H](C)/C=C/C(=O)O[C@H]2[C@@H](C)[C@@H](CC1)O[C@@]1(CC[C@@H](C)[C@@H](C[C@H](C)O)O1)[C@@H]2C please.
Resp: 201

Req: Report mean signal for CN1CC[C@]2(c3cccc(O)c3)Cc3nc4ccccc4cc3C[C@H]2C1 please.
Resp: 226

Req: Report mean signal for O[C@@H]1CCCC[C@H]1N1CCC(c2ccccc2)CC1 please.
Resp: 231

Req: Report mean signal for O=C(O)CCCc1ccc(N(CCCl)CCCl)cc1 please.
Resp: 236

Req: Report mean signal for CC(NC(C)(C)C)C(=O)c1cccc(Cl)c1 (stereo not drawn) please.
Resp: 264

Req: Report mean signal for COc1ccc2[nH]cc(CCN)c2c1 please.
Resp: 258

----------
Test: Cy5 fluorescence quenching or enhancement artefacts, artefact control for HCV NS3 helicase inhibitor project, biochemical, LOPAC1280 (AID 687037)
Experimental Parameters: Cy5-DNA-NS3h complex fluorescence interference counterscreen
Measured Property: fluorescence ratio (interference)
Note: the reply should be a number with no unit written.

| Molecule | fluorescence ratio (interference) |
| --- | --- |
| CCCN(CCC)CCc1ccc(O)c(O)c1 | 1 |
| CCCN1CC[C@@H]2c3cc(O)ccc3CC[C@@H]21 | 0.9 |
| Cn1c(CCCC(=O)O)nc2cc(N(CCCl)CCCl)ccc21 | 1 |

Req: Report fluorescence ratio (interference) for c1ccc(C2CC2)c(OCC2=NCCN2)c1 please.
Resp: 1

Req: Report fluorescence ratio (interference) for c1ccc2c(c1)OCC(C1=NCCN1)O2 (stereo unspecified) please.
Resp: 0.9

Req: Report fluorescence ratio (interference) for Cc1cccc(C)c1NC1=NCCCS1 please.
Resp: 1

Req: Report fluorescence ratio (interference) for COc1ccc(C(=O)N2CCCC2=O)cc1 please.
Resp: 0.9

Req: Report fluorescence ratio (interference) for NC(=O)c1cc(N2CC2)c([N+](=O)[O-])cc1[N+](=O)[O-] please.
Resp: 1

Req: Report fluorescence ratio (interference) for CCCn1c(C)c(C(=O)c2ccc3ccccc3c2)c2ccccc21 please.
Resp: 1

Req: Report fluorescence ratio (interference) for NC(CCCCCP(=O)(O)O)C(=O)O (stereo unspecified) please.
Resp: 1

Req: Report fluorescence ratio (interference) for CC(C)Oc1cccnc1N(C)C1CCN(Cc2ccccc2)CC1 please.
Resp: 1

----------
Test: sensitizers of A549 cells to miR-34 induction, primary screen, imaging, A549 dox-inducible miR-34, nuclei and caspase counts (AID 1347080)
Experimental Parameters: A549 miR-34 inducible, Hoechst nuclei count, 48 h; measured here: total cells with miR-34 induction; stronger effect = lower value
In this section, each of the compounds is paired with its reported cell count.
Note: the reply should be a number with no unit written.

Some compounds with known cell count results, for comparison:
| Compound | Observed |
| --- | --- |
| CN1C2CCC1CC(OC(c1ccccc1)c1ccccc1N)C2 (configuration not stated) | 9770 |
| CNCCc1c[nH]c2ccc(O)cc12 | 10900 |
| CN1CC[C@@]2(C)c3cc(O)ccc3N(C)C12 (some centres not stated) | 8970 |
| Oc1ccc2c3c1OC1[C@@H](O)CC[C@@]4(O)[C@@H](C2)N(CC2CCC2)CC[C@]314 (some centres not stated) | 12000 |
| CNc1ccc2oc(C[C@@H]3OC4(CC[C@@H]3C)O[C@H](C(C)C(=O)c3ccc[nH]3)[C@H](C)C[C@H]4C)nc2c1C(=O)O (some centres not stated) | 885 |

Req: Report cell count for CC(=O)OC1CN2CCC1CC2 (configuration not stated) please.
Resp: 8550

Req: Report cell count for CC(O)CN1CCN(CC(=O)[O-])CCN(CC(=O)[O-])CCN(CC(=O)[O-])CC1.[Gd+3] (configuration not stated) please.
Resp: 8990

----------
Tested on: Aerobactin synthetase IucA (Klebsiella pneumoniae hvKP1)
Test: Biochemical IucA enzyme inhibition primary screen of the Spectrum library (AID 1346200);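 note: 100% = wells without compound and 0% = wells lacking enzyme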
Experimental Parameters: malachite green pyrophosphate, A620, at 8 µM, stronger effect = lower value
In this section, each of the compounds is paired with its reported activity remaining.
Record the value in %, omitting the unit from your answer.

Some compounds with known activity remaining results, for comparison:
| Compound | Observed |
| --- | --- |
| CC(=O)CC1CCCCN1 (stereo unspecified) | 107 |
| Cc1cc(C(C)(C)C)c(O)c(C(C)(C)C)c1 | 110 |

Req: Report activity remaining for CC[C@H]1CN2CCc3cc(OC)c(OC)cc3C2C[C@@H]1CC1NCCc2cc(OC)c(OC)cc21 (stereo partly specified) please.
Resp: 118

Req: Report activity remaining for C/C=C(/C)C(=O)O[C@H]1CC[C@@]2(C)[C@@H]3CC[C@H]4[C@]5(O)C[C@H](O)[C@@]6(O)[C@@H](CN7C[C@@H](C)CC[C@H]7[C@@]6(C)O)[C@]5(O)C[C@@]42OC13O please.
Resp: 103

Req: Report activity remaining for CC(C)(Sc1cc(C(C)(C)C)c(O)c(C(C)(C)C)c1)Sc1cc(C(C)(C)C)c(O)c(C(C)(C)C)c1 please.
Resp: 89.7

Req: Report activity remaining for CC(CCC(=O)O)[C@H]1CCC2C3CC[C@@H]4CCCC[C@]4(C)C3CC[C@@]21C (stereo partly specified) please.
Resp: 108
